Record form. Attribute: koff. Fill in for each entry.
# targetOfAssay: purified recombinant human alpha synuclein fibrils (human, UniProt P37840 1-140)
# protocolDescription: SPR, Biacore T200, as in Example 3; Fab injected;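 further: ligands amine-coupled on CM5 chip flow cells, HBS-EP+ running buffer, kinetic data fitted with 1:1 model allowing local bulk contribution and global Rmax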
Please give a number only; it is taken to be in s⁻¹.

Request: What value of measured koff is listed for 6470 rabbit Fab with heavy chain mutation S53N (Fab, V domains shown) VH: QSVEESGGRLVTPGTPLTLTCTVSGIDLSSHDMYWVRQAPGKGLEYIGAIYANGSTYYASWAKGRFTISKTSTTVDLKMTSLTTEDTATYFCARIHYGNSGGLWGQGTLVTVSS VL: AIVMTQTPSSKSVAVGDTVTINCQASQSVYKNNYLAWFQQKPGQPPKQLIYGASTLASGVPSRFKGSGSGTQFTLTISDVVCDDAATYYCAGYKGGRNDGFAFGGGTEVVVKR ?
Result: 0.286

Request: 6470 rabbit Fab with heavy chain mutation H31K (Fab, V domains shown) VH: QSVEESGGRLVTPGTPLTLTCTVSGIDLSSKDMYWVRQAPGKGLEYIGAIYASGSTYYASWAKGRFTISKTSTTVDLKMTSLTTEDTATYFCARIHYGNSGGLWGQGTLVTVSS VL: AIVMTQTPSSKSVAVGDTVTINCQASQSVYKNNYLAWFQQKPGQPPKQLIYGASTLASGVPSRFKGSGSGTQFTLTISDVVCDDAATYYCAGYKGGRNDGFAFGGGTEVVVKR
Result: 0.423

Data credit: patent US20210107971A1
